// provenance: ChEMBL document CHEMBL3507680

TEST_NAME: Human HepG2 cell viability assay in 384 well format
Format: toxicity, cell-based
Design: dose 125 nL, time 70.5 hour; concentration not given beside the values
PARTICULARS: HepG2 cells, read-out: Inhibition
In this section, each of the compounds is paired with its reported cytotoxicity at 70.5 h.
MEASURE: cytotoxicity at 70.5 h

> print(dat)
                                    compound   result
 1  CC(=O)NCc1nccnc1C1CCN(C(=O)c2cc[nH]n2)CC1   -6.68%
 2  Cc1cnc(NC2CCc3c(ccc(=O)n3CC3CC3)C2)nc1 (centres undefined)   -5.47%
 3  CC1CCCN(Cc2c(C3CC3)[nH]c3ncccc23)C1 (centres undefined)   -4.53%
 4  COc1ccc(C(=O)C2CCCN(c3cc(C#N)ccn3)C2)cc1F (centres undefined)   -6.04%
 5         Cc1nc(CSCc2ccc(OCC(F)(F)F)nc2)no1   -7.83%
 6     OC1CCN(Cc2ccc(CNc3ncc(Cl)cc3F)cc2)CC1    14.7%
 7    CC(C)NC(=O)N1CCC2(CCC(=O)N2CCN(C)C)CC1    -8.1%
 8        CC(C)CN1CCC2(CCN(Cc3ccsc3)CC2)C1=O    6.07%
 9  Cc1nc(C)n(C2CCCN(C(=O)CCCn3ccnc3)C2)n1 (centres undefined)    4.28%
10        N#Cc1ccc(N2CCCN(CCCn3cncn3)CC2)cc1  -0.762%
11        CS(=O)(=O)Cc1ccc(OCc2ccc(F)cc2)cc1    19.8%
12  COc1ncc(-c2cc(-c3ccn(C)c3)nc(N)c2C#N)cn1    7.14%
13  Clc1ccccc1C1CN(CCc2ccncc2)CCO1 (centres undefined)   -6.68%
14  CC(C1CC1)N(C(=O)CNc1ccc(C#N)cc1)C1CC1 (centres undefined)    -6.5%
15  COc1ccc(CNC[C@H]2COCc3nc4cc(F)ccc4n32)cc1   -14.9%
16  OCCC1CN(c2ncnc3[nH]cnc23)CCN1Cc1ccccc1 (centres undefined)   -3.48%
17         CC(C)CNC(=O)Nc1ccc(CN2CCOC2=O)cc1   -13.4%
18     CSc1ccc(CN(CCO)C(=O)CCc2cccc(F)c2)cc1   -15.9%
19  O=C(Nc1ccc2occc2c1)N1CCCC(O)(CO)CC1 (centres undefined)   -1.52%
20     Cc1nc(O)cc(CCNc2nccc(CCC(F)(F)F)n2)n1   -8.71%
21  Cc1ccc([C@]2(O)CC[C@H]3CN(Cc4cccnc4)C[C@H]32)nc1    9.25%
22  CSc1ccc(C(=O)N2CCOCC2c2c(C)nn(C)c2C)o1 (centres undefined)   -4.66%
23  CCCn1cnnc1CNC(=O)CC1C(=O)NCCN1CC(C)(C)C (centres undefined)   -12.5%
24  Cc1nn(CC(=O)N2CCCN(c3cccnn3)CC2)c(C)c1Cl   0.771%
25    COc1cc(F)cc(NC(=O)NCc2cccc(N(C)C)n2)c1    16.5%
26             O=C(Nc1cccnc1)C1=Cc2ccccc2OC1    7.74%
27  CC(C)C(C(=O)N1CCCN(Cc2nccn2C)CC1)N1CCCC1 (centres undefined)    30.4%
28         NC(=O)COc1ccc(C(=O)NCCc2ccco2)cc1   -5.22%
29  CCc1nc2c(s1)C(N(C)C(=O)c1csnn1)CCC2 (centres undefined)   -5.63%
30  CCOc1ccccc1CNS(=O)(=O)c1ccc2c(c1)CCCC(=O)N2    -9.4%
31      COC1CCN(C(=O)Cc2csc(-c3ncccn3)n2)CC1   -3.38%
32           O=C(NCCN1CCc2ccccc2C1)c1scnc1Cl   -1.52%
33     c1cncc(CNc2ncnc3c2CCN(Cc2ccsc2)CC3)c1   -5.06%
34  O=C(CN1C[C@H]2CC[C@@H]1CN(Cc1ccccn1)C2)Nc1ccccc1   -6.28%
35        O=C(CCc1ccccc1)N1CCC(N2CCNC2=O)CC1   -8.47%
36  Cc1cnn(CCNCC(O)COc2ccc(Cl)cc2Cl)c1 (centres undefined)   -2.81%
37     O=c1[nH]nc2c(S(=O)(=O)N3CCOCC3)cccn12   -9.51%
38  CCN1CCN(C(=O)C(C)n2cc(Br)cn2)CC1 (centres undefined)   -1.55%
39         CN(CCCOc1ccccc1)S(=O)(=O)N1CCOCC1   -12.8%
40  COc1cc(C)nc(N2CCN(C(=O)c3ccc(Cl)o3)CC2)n1   -7.01%
41  CN(C)c1ccccc1C(=O)N1CCCC(c2cccc(C(=O)O)c2)C1 (centres undefined)   -8.42%
42        Cc1cnc(C(=O)N2CCc3ncnc(C)c3CC2)cn1   -3.63%
43         CC(C)c1nc(CSc2nnc(Cn3cncn3)o2)cs1    0.92%
44     CNc1ccnc(N(C)Cc2cc(-c3cccs3)n[nH]2)n1    32.5%
45            Cn1ccnc1-c1cn(CCc2nnc(N)s2)nn1    43.6%
46  COc1ncc(CN2CCCC2c2[nH]ncc2C(=O)N(C)C)cn1 (centres undefined)    23.2%
47               CCCC(C)(C)NC(=O)c1cnc(CC)s1   -1.12%
48  Cc1ccc(=O)n(CC2(O)CCN(Cc3cnc(N(C)C)nc3)CC2)n1    17.6%
49  CCCNC(=O)CN1CCCC1c1nc(Cc2ccc(F)cc2)no1 (centres undefined)   -4.46%
